The compounds listed here are annotated with their IC50.
TESTED_ON: GTPase KRas (Homo sapiens, UniProt P01116, G12V)
EXPERIMENT_DESCRIPTION: Inhibition of alexa fluor 647-labeled kinase tracer 314 binding to biotinylated-KRAS G12V mutant (unknown origin) measured after 60 mins by HTRF competition binding assay
TEST_CONDITIONS: read-out: IC50
Field format: number, assumed µM, no unit text.

Answered examples (3):
COMPOUND_STRUCTURE: CC(C)C[C@H](NC(=O)[C@@H]1COCc2cnnn2CCCCC(=O)NCC(=O)N2CCC[C@H]2C(=O)N[C@@H](Cc2cccc3ccccc23)C(=O)N1)C(N)=O
TESTED_ON: GTPase KRas (Homo sapiens, UniProt P01116, G12V)
READOUT_NUMBER: 7.1
--
COMPOUND_STRUCTURE: CCCC[C@H](NC(=O)[C@@H]1COCc2cnnn2CCCCC(=O)NCC(=O)N2CCC[C@H]2C(=O)N[C@@H](Cc2cccc3ccccc23)C(=O)N1)C(N)=O
TESTED_ON: GTPase KRas (Homo sapiens, UniProt P01116, G12V)
READOUT_NUMBER: 100
--
COMPOUND_STRUCTURE: CC(C)C[C@H](NC(=O)[C@@H]1COCc2cnnn2CCCCC(=O)N[C@H](CC(=O)O)C(=O)N2CCC[C@H]2C(=O)N[C@@H](Cc2cccc3ccccc23)C(=O)N1)C(N)=O
TESTED_ON: GTPase KRas (Homo sapiens, UniProt P01116, G12V)
READOUT_NUMBER: 77

Determine from records and report IC50 for CCCC[C@@H]1NC(=O)[C@@H]2CCCN2C(=O)CNC(=O)CCCCn2nncc2COC[C@@H](C(=O)N[C@@H](CC(C)C)C(N)=O)NC1=O
48

Return IC50 (reported value) for this compound: CC(C)C[C@H](NC(=O)[C@@H]1COCc2cnnn2CCCCC(=O)NCC(=O)N2CC[C@@H](O)[C@H]2C(=O)N[C@@H](Cc2cccc3ccccc23)C(=O)N1)C(N)=O
70

Please list IC50 recorded for the compound CC(C)C[C@H](NC(=O)[C@@H]1COCc2cnnn2CCC(=O)NCC(=O)N2CCC[C@H]2C(=O)N[C@@H](Cc2cccc3ccccc23)C(=O)N1)C(N)=O
7

Give reported IC50 value for CC(C)C[C@H](NC(=O)[C@@H]1COCc2cnnn2CCCCC(=O)NCC(=O)N2Cc3ccccc3C[C@H]2C(=O)N[C@@H](Cc2cccc3ccccc23)C(=O)N1)C(N)=O
5.8

====

Reported IC50 values are given for each entry in this list.
TESTED_ON: GTPase KRas (Homo sapiens, UniProt P01116, G12V)
EXPERIMENT_DESCRIPTION: Inhibition of alexa fluor 647-labeled kinase tracer 314 binding to biotinylated-KRAS G12V mutant (unknown origin) measured after 60 mins by HTRF competition binding assay
TEST_CONDITIONS: read-out: IC50
Numbered stars: 1 amine (or outer) side, 2 acyl side, 3 side chain; on linkers, the order of the positions; unused ones are H or OH. Bridge positions count the residues as written; N and C are the ends. Square brackets hold non-standard residues; d marks the D form. Peptide text beside a SMILES is read from it. ξ: configuration not given here. Nle(4-yne,6-yl) = O=C([C@H](CC#CC[*:3])N[*:1])[*:2]; ξIle = CC[C@H](C)C(N)C(=O)O

COMPOUND: NC(=O)[C@H](CC1CCCCC1)NC(=O)[C@@H]1COCc2cnnn2CCCCC(=O)NCC(=O)N2CCC[C@H]2C(=O)N[C@@H](Cc2cccc3ccccc23)C(=O)N1
TESTED_ON: GTPase KRas (Homo sapiens, UniProt P01116, G12V)
ATTRIBUTE_MEASURED: IC50
RESULT: 100 µM
//
COMPOUND: CC(C)C[C@H](NC(=O)[C@H]1Cc2cnnn2CCCCC(=O)NCC(=O)N2CCC[C@H]2C(=O)N[C@@H](Cc2cccc3ccccc23)C(=O)N1)C(N)=O
TESTED_ON: GTPase KRas (Homo sapiens, UniProt P01116, G12V)
ATTRIBUTE_MEASURED: IC50
RESULT: 65 µM
//
COMPOUND: NC(=O)[C@H](CC1CC1)NC(=O)[C@@H]1COCc2cnnn2CCCCC(=O)NCC(=O)N2CCC[C@H]2C(=O)N[C@@H](Cc2cccc3ccccc23)C(=O)N1
TESTED_ON: GTPase KRas (Homo sapiens, UniProt P01116, G12V)
ATTRIBUTE_MEASURED: IC50
RESULT: 29 µM

Give IC50 for CC[C@H](C)C1NC(=O)[C@@H]2CCCN2C(=O)[C@H](Cc2ccc(O)cc2)NC(=O)[C@@H](NC(=O)[C@H](CC(=O)O)NC(=O)[C@H](Cc2ccc(O)cc2)NC(=O)[C@H](Cc2ccccc2)NC(=O)[C@H](Cc2c[nH]cn2)NC(=O)[C@@H](N)Cc2ccccc2)CC#CCSC[C@@H](C(=O)N[C@@H](CC(C)C)C(=O)N[C@H](C(=O)N2CCC[C@H]2C(=O)N2CCC[C@H]2C(N)=O)[C@@H](C)CC)NC1=O (some centres undefined) (H-FHFYD[Nle(4-yne,6-yl)]YP[ξIle]CLIPP-NH2; thioether 6-10) tested on GTPase KRas (Homo sapiens, UniProt P01116, G12V).
0.023 µM

====

Test system: GTPase KRas (Homo sapiens), P01116 [G12V]
EXPERIMENT_DESCRIPTION: Inhibition of alexa fluor 647-labeled kinase tracer 314 binding to biotinylated-KRAS G12V mutant (unknown origin) at 100 uM measured after 60 mins by HTRF competition binding assay
# maps each entry to its inhibition
Give your result in % as a bare value.

COMPOUND_STRUCTURE: CC[C@H](C)[C@@H]1NC(=O)[C@@H]2CCCN2C(=O)CNC(=O)CCCn2nncc2COC[C@@H](C(=O)N[C@@H](CC(C)C)C(N)=O)NC1=O
READOUT_NUMBER: 39

For the compound CC[C@H](C)[C@@H]1NC(=O)[C@@H]2CCCN2C(=O)[C@H](Cc2ccccc2)NC(=O)CCCc2cn(nn2)C[C@@H](C(=O)N[C@@H](CC(C)C)C(N)=O)NC1=O , report inhibition.
8

Input CC[C@H](C)[C@@H]1NC(=O)[C@@H]2CCCN2C(=O)[C@H](Cc2ccccc2)NC(=O)CCCc2cn(nn2)CC[C@@H](C(=O)N[C@@H](CC(C)C)C(N)=O)NC1=O , output reported inhibition.
9

====

TESTED_ON: GTPase KRas (Homo sapiens, UniProt P01116, G12V)
EXPERIMENT_DESCRIPTION: Inhibition of alexa fluor 647-labeled kinase tracer 314 binding to biotinylated-KRAS G12V mutant (unknown origin) measured after 60 mins by HTRF competition binding assay
TEST_CONDITIONS: read-out: IC50
Could you mark each record yes (1) if its IC50 falls strictly under 50 µM, and no (0) if it equals or exceeds it?

Recorded results for 5 compounds are shown here.
COMPOUND_STRUCTURE: CC(C)C[C@H](NC(=O)[C@@H]1COCc2cnnn2CCCCC(=O)NCC(=O)N2CCC[C@H]2C(=O)N[C@@H](Cc2ccc3ccccc3c2)C(=O)N1)C(N)=O
LABEL_VALUE: yes (1)
--
COMPOUND_STRUCTURE: CC[C@H](C)[C@@H]1NC(=O)[C@@H]2CCCN2C(=O)[C@H](Cc2ccc(O)cc2)NC(=O)CCc2cnnn2CC[C@@H](C(=O)N[C@@H](CC(C)C)C(N)=O)NC1=O
LABEL_VALUE: no (0)
--
COMPOUND_STRUCTURE: CC(C)C[C@H](NC(=O)[C@H]1CCn2nncc2CCCC(=O)NCC(=O)N2CCC[C@H]2C(=O)N[C@@H](Cc2cccc3ccccc23)C(=O)N1)C(N)=O
LABEL_VALUE: yes (1)
--
COMPOUND_STRUCTURE: NC(=O)C[C@H](NC(=O)[C@@H]1COCc2cnnn2CCCCC(=O)NCC(=O)N2CCC[C@H]2C(=O)N[C@@H](Cc2cccc3ccccc23)C(=O)N1)C(N)=O
LABEL_VALUE: yes (1)
--
COMPOUND_STRUCTURE: CC(C)C[C@H](NC(=O)[C@@H]1COCc2cnnn2CCCCC(=O)N[C@@H](C)C(=O)N2CCC[C@H]2C(=O)N[C@@H](Cc2cccc3ccccc23)C(=O)N1)C(N)=O
LABEL_VALUE: yes (1)

Regarding CC(=O)N[C@@H](CCC(=O)O)C(=O)N[C@H]1CCCn2nncc2COC[C@H](C(=O)N[C@@H](CC(C)C)C(N)=O)NC(=O)[C@H](Cc2cccc3ccccc23)NC(=O)[C@@H]2CCCN2C(=O)CNC1=O , kindly confirm whether its IC50 is beneath 50 µM.
no (0)

Here's an entry: CC(C)C[C@H](NC(=O)[C@H]1CCCc2cnnn2CCCCC(=O)NCC(=O)N2CCC[C@H]2C(=O)N[C@@H](Cc2cccc3ccccc23)C(=O)N1)C(N)=O . Is its IC50 below 50 µM?
yes (1)

Hello, I'm reviewing records and need to know if IC50 of CC(C)C[C@H](NC(=O)[C@H]1COCc2cnnn2CCCCC(=O)NCC(=O)N2CCC[C@H]2C(=O)N[C@@H](Cc2cccc3ccccc23)C(=O)N1)C(=O)N[C@@H](C)C(=O)N1CCC[C@H]1C(N)=O is below 50 µM. Could you check?
yes (1)

Find out if reported IC50 for CC[C@H](C)[C@@H]1NC(=O)[C@@H]2CCCN2C(=O)[C@H](Cc2ccccc2)NC(=O)CCCc2cn(nn2)C[C@@H](C(=O)N[C@@H](CC(C)C)C(N)=O)NC1=O is less than 50 µM
no (0)

Consider the compound CC(C)C[C@H](NC(=O)[C@@H]1COCc2cnnn2CCCCC(=O)NCC(=O)N2CCC[C@H]2C(=O)N[C@@H](CC(C)C)C(=O)N1)C(N)=O . Is its IC50 strictly less than 50 µM?
no (0)
